Origin of values: ChEMBL document CHEMBL4689842

Test system: U2OS
Experiment: Multiplex assay against U2OS
Format: toxicity, cell-based
Details: human, 48 h, 1 µM, compound concentration 1 uM, replicate 2
Reported Population Apoptotic (%) values for a set of molecules
Give just the numeric value; % need not be written.

# Molecule, Target Entity, Experimental Result
rows = [
    ("O=C(c1cc2c(cc1F)OC(c1ccc(F)cc1)(c1ccc(Cl)cc1Cl)O2)N1CCOCC1 (configuration not stated)", "U2OS", 60),
    ("CCCSc1nc(N[C@@H]2C[C@H]2c2ccc(F)c(F)c2)c2nnn([C@@H]3C[C@H](OCCO)[C@@H](O)[C@H]3O)c2n1", "U2OS", 25),
    ("CN1CCN(Cc2ccc(Nc3ncc(Cl)c(Nc4ccccc4S(=O)(=O)N(C)C)n3)cc2)CC1", "U2OS", 100),
    ("CC(C)NC(=O)N1CC[C@H](NC2=Nc3cc(F)ccc3N(CC(F)F)c3ccc(Cl)cc32)C1", "U2OS", 25),
    ("COc1cc2ncn(-c3cc(OCc4ccccc4C(F)(F)F)c(C(N)=O)s3)c2cc1OC [GW843682X]", "U2OS", 62),
]

# input molecule: COc1cc(Nc2nccc(-c3cnn4nc(OC)ccc34)n2)cc(C(F)(F)F)c1 ; wanted: its Population Apoptotic (%)
55

What would you report for CC(C)Oc1ccccc1C(=O)Nc1ccccc1C(=O)Nc1cccc(S(=O)(=O)C(F)(F)F)c1 ?
66

====

System: HEK-293T
Experiment: Multiplex assay against HEK293T
Assay type: toxicity, cell-based
Settings: human, 12 h, 10 µM, compound concentration 10 uM, replicate 2
So basically every entry gets a class from its Population Pyknosed Nuclei (%), ranges being 1 (below 50%), 2 (50% to below 80%), 3 (80% or more)

# Molecule, Target Entity, Discrete Label
measured = [
    ("CC(C)Oc1ccccc1C(=O)Nc1ccccc1C(=O)Nc1cccc(S(=O)(=O)C(F)(F)F)c1", "HEK-293T", 2),
    ("Cc1ccccc1C(c1ccccc1C)N1C2CCC1CC(O)(c1ccccc1)C2 (stereo not drawn)", "HEK-293T", 2),
    ("Cc1c[nH]c2nccc(Oc3c(F)cc(Nc4cc(Cl)nc(N)n4)cc3F)c12", "HEK-293T", 2),
    ("COC(=O)C1=C(C)NC(C)=C(C(=O)OCCCN2CCC(c3ccccc3)(c3ccccc3)CC2)[C@H]1c1cccc([N+](=O)[O-])c1", "HEK-293T", 3),
    ("CNC(=O)Nc1ccc2c(c1)[C@@]1(CC2)OC(=O)N(CC(=O)N(Cc2ccc(F)cc2)[C@@H](C)C(F)(F)F)C1=O", "HEK-293T", 1),
]

Class (by measured Population Pyknosed Nuclei (%)) for Cl.O=C(O)c1cc(-c2ccc(C3CCNCC3)cc2)c2ccc(-c3ccc(C(F)(F)F)cc3)cc2c1
2

====

Test system: HEK-293T
Assay: Multiplex assay against HEK293T
Format: toxicity, cell-based
Settings: human, 12 h, 10 µM, compound concentration 10 uM, replicate 2
Measured Endpoint: Population Fragmented Nuclei (%)
Give just the numeric value; % need not be written.

# Molecule, Unit Annotation, Experimental Result
data = [
    ("O=c1[nH]c2ccccc2n1C1CCN(Cc2ccc(-c3[nH]c4cc5ncnc5cc4nc3-c3ccccc3)cc2)CC1", "%", 2),
]

// next entry
# input molecule: COc1cc(Nc2nccc(-c3cnn4nc(OC)ccc34)n2)cc(C(F)(F)F)c1 ; wanted: its Population Fragmented Nuclei (%)
6
